Every entry's value here was drawn from the supplement of paper PMC10567573.

B1: DCAF4 (parent)
chain: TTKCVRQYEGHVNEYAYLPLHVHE

# Variants of: B1
# Test method notes: protein stability index of a GFP-peptide fusion (GPS, HEK-293T) (PSI 1-6); higher = more stable;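 further: lentivirally expressed fusions sorted by FACS into six bins by GFP to DsRed ratio, PSI derived from sequencing read proportions per bin multiplied by bin number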
# Measurement context: c terminus: a fixed tail appended
Parameter class (string): assigned from measured protein stability index. Ranges: bottom bin: < 2; middle bin: ≥ 2 and < 3; top bin: ≥ 3

1) C4D
top bin
2) T1H
middle bin
3) G10L
middle bin
4) V12Y
middle bin
5) Q7V
middle bin
6) E24M
bottom bin
7) E9C
bottom bin
8) H23M
middle bin
9) K3D
top bin
10) A16G
middle bin
11) H21V
middle bin
